experimental system: Mucolipin-2 (Homo sapiens)
protocol notes: TRPML3 and TRPML2 channel agonists, cell-based, patch clamp, Fura-2 profiling panel (AID 2116)
study conditions: HEK293 cells, TRPML2 Fura-2 Imaging; at 10 µM
Activity calls are given as the source filed them. How the calls were made is not given here.
Outcome codes: active, inactive

- molecule: "Cc1ccc(S(=O)(=O)Nc2ccccc2-c2ccccc2)cc1"
  group: "inactive"
- molecule: "Cc1ccc(N2CCN(S(=O)(=O)N3CCCCC3)CC2)c(C)c1"
  group: "active"
- molecule: "O=S(=O)(NC1CCCCC1N1CCOCC1)c1ccc(Cl)cc1 (centres undefined)"
  group: "active"
- molecule: "O=S(=O)(Nc1ccccc1N1CCOCC1)c1ccc(Cl)s1"
  group: "inactive"
